target: Dihydroorotate dehydrogenase (quinone), mitochondrial (Plasmodium falciparum (isolate 3D7)) (UniProt Q08210); assay: PfDHODH enzyme inhibitors, primary screen, biochemical, C-terminal His tag, absorbance 600 nm (AID 1175); settings: DCIP absorbance 600 nm, higher = more signal, called active from +8 up or from −8 down;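 note: recombinant parasite enzyme with a five histidine tag at its C terminus; test concentration not given here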
Sequence (Q08210 whole entry, looked up): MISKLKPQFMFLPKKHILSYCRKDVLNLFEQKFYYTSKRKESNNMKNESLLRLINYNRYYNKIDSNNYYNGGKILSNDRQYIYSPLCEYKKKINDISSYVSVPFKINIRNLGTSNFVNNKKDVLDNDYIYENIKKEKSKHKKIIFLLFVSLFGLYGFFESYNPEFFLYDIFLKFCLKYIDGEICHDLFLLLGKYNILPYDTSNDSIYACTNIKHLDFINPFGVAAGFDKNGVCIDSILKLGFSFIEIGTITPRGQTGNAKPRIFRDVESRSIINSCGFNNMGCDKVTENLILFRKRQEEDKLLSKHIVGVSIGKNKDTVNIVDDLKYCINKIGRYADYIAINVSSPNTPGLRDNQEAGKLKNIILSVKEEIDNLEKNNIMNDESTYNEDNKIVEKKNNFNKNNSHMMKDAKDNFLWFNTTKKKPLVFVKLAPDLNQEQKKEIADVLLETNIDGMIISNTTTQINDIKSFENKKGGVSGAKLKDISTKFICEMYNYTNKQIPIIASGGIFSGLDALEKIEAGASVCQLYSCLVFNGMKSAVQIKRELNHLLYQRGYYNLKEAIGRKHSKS
Consider the following compounds; for each one, report its composite z-score.
Answers are plain numbers.

Problem: Look up composite z-score: `O=C1O[C@H](c2ccccc2)[C@H](c2ccccc2)N2[C@H]1[C@@H](C(=O)NC[C@H](O)c1ccccc1)[C@]1(C(=O)Nc3ccc(C#CCCO)cc31)[C@H]2c1ccc(O)cc1`
Result: -1.4

Problem: Look up composite z-score: `COc1ccc([Si](C)(C)[C@H]2[C@H](CC(=O)N(CCO)Cc3ccccc3)O[C@@]3(C(=O)N(Cc4cccc(N5CCC5=O)c4)c4ccccc43)[C@@H]2C)cc1`
Result: -1.19

Problem: Look up composite z-score: `CC(=CC1CCCCC1)[C@@H](NC(=O)c1ccc(C(F)(F)F)cc1)c1ccc(-c2ccccc2)cc1`
Result: -0.468

Problem: Look up composite z-score: `O=C1[C@]2(CO)C=C(Br)[C@@H](C[C@@H]2c2ccccc2)[C@@]12CO2`
Result: -0.172

Problem: Look up composite z-score: `C=CCNC(=O)[C@@H]1[C@H]2C(=O)O[C@H](c3ccccc3)[C@H](c3ccccc3)N2[C@H](c2ccc(OCCO)cc2)[C@@]12C(=O)Nc1ccccc12`
Result: -2.04

List the reported composite z-score of each compound below.
1. C=C(CCCC)C(=O)CC[C@H](OC(=O)c1cccnc1)c1cccc(OCCO)c1
2. COC(=O)[C@@]1(Cc2ccccc2N=[N+]=[N-])COC(c2ccc(OCCCO)cc2)=N1
3. CC(C)(C)OC(=O)CC[C@@]1(C(=O)NCCN2CCOCC2)N=C(c2ccc(OCCCO)cc2)O[C@@H]1c1ccccc1
4. COCCOC(=O)N1C(=O)[C@@]2(c3cc(C#CCCO)ccc31)[C@H](C(=O)NC[C@H](O)c1ccccc1)[C@H]1C(=O)O[C@H](c3ccccc3)[C@H](c3ccccc3)N1[C@@H]2c1ccc(O)cc1

Result:
1. -0.455
2. 0.215
3. -0.317
4. 1.34

List the reported composite z-score of each compound below.
1. Cc1cc(C)cc(N2C(=O)CS(=O)(=O)C2c2cccc([N+](=O)[O-])c2)c1 (centres undefined)
2. CC(C)CNC(=O)[C@@]1(c2ccc([N+](=O)[O-])cc2)CC(=O)N(CC23CC4CC(CC(C4)C2)C3)[C@@H]1c1ccc(CO)cc1I
3. COc1ccc([Si](C)(C)[C@@H]2[C@@H](CCn3cc([C@H](O)c4ccccc4)nn3)O[C@]3(C(=O)N(Cc4ccc(N5C(=O)c6cccc7cccc5c67)cc4)c4ccccc43)[C@H]2C)cc1
4. COc1ccc(CCNC(=O)[C@@]2(c3ccc([N+](=O)[O-])cc3)CC(=O)N(CC34CC5CC(CC(C5)C3)C4)[C@@H]2c2ccc(CO)cc2)cc1
5. CCCCC=C[C@@H](NC(=O)c1ccco1)c1ccccc1
6. CCOC(=O)C1=CCC(c2ccc([N+](=O)[O-])cc2)N(S(=O)(=O)c2ccc(C)cc2)C1 (centres undefined)

Result:
1: -2.1; 2: 0.989; 3: -0.609; 4: 0.682; 5: 0.559; 6: 0.774

List the reported composite z-score of each compound below.
1. C=CC[C@@]1(C(=O)O)N=C(c2ccc(OCCCO)cc2)O[C@@H]1c1ccccc1N=[N+]=[N-]
2. COC(=O)C(CC#Cc1ccc2c(c1)[C@]1(C(=O)N2)[C@H](C(=O)NC[C@H](O)c2ccccc2)[C@H]2C(=O)O[C@H](c3ccccc3)[C@H](c3ccccc3)N2[C@@H]1c1ccc(OCCO)cc1)C(=O)OC
3. NCCCCCNC(=O)[C@H]1C[C@H]2C(=O)NCC(=O)N2[C@H]1c1cccc(OCCO)c1
4. COc1ccc(CCNC(=O)[C@@H]2c3ccccc3C(=O)N(Cc3ccc(OC(F)(F)F)cc3)[C@H]2c2ccc(CO)cc2)cc1
5. CC(C)C(O)C1C=CC2C(=O)N(c3ccccc3)C(=O)C2N1Nc1ccc(C#N)cc1 (centres undefined)
6. NC(=O)NCC#Cc1ccc2c(c1)[C@]1(C(=O)N2)[C@H](C(=O)NC[C@H](O)c2ccccc2)[C@H]2C(=O)O[C@H](c3ccccc3)[C@H](c3ccccc3)N2[C@@H]1c1ccc(O)cc1
7. O=C(O)[C@H]1C[C@H]2C(=O)NCC(=O)N2[C@H]1c1ccc(O)cc1
8. O=C1C2C=CC(C(O)c3ccc(F)cc3)N(Nc3ccccc3)C2C(=O)N1c1ccccc1 (centres undefined)

Result:
1: 0.535; 2: -16.8; 3: -0.355; 4: 0.274; 5: -1.02; 6: 0.389; 7: -0.592; 8: 0.485

* * *

molecular target: Pro-neuregulin-1, membrane-bound isoform (Homo sapiens) (UniProt Q02297); assay: NRG1 binders on small-molecule microarrays, primary screen, psychiatric disease protein project, biochemical, small-molecule microarray, fluorescence 635/667 (AID 1075); conditions: NRG1 binding, 635 nm fluorescence, higher = more signal;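 note: score combines 667 nm spot fluorescence with signal to noise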
Sequence (Q02297 whole entry, looked up, canonical isoform): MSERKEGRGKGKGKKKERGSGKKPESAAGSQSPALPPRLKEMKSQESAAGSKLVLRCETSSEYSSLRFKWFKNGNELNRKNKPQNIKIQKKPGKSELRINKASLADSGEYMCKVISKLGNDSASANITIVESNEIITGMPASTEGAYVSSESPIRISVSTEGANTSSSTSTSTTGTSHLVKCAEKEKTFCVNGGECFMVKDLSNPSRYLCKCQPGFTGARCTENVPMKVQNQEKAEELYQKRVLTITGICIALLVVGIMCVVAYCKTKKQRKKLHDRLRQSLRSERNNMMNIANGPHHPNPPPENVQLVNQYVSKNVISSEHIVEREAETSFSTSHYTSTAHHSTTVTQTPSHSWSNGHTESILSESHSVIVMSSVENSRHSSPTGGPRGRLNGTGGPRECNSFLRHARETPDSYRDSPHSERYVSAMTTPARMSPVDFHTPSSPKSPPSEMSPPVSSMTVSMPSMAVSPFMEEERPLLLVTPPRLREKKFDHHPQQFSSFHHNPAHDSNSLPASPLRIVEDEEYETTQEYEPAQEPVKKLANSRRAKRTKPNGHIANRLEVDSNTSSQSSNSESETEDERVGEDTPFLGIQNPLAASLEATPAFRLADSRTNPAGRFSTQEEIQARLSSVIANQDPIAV
Where composite z-score equals or exceeds 0.08, the correct label is T; where it does not, the label is F.

A selection of reference data follows.
Problem: Hello, I need to know if `COc1cc2c(cc1OC)CN(C(=O)[C@@H]1[C@H]3C(=O)O[C@H](c4ccccc4)[C@H](c4ccccc4)N3[C@H](c3ccccc3OCCO)[C@@]13C(=O)Nc1ccc(C#CCNC(N)=O)cc13)CC2` has measured composite z-score not below 0.08. Thanks!
Result: T

Problem: Hello, I need to know if `Cc1ccc(S[C@]2(C(=O)NCc3ccccc3)CC(=O)N(Cc3ccccc3)[C@@H]2c2ccc(CO)cc2)cc1` has measured composite z-score not below 0.08. Thanks!
Result: T

Problem: Hello, I need to know if `CC(=O)NCCCC[C@@H]1NC(=O)[C@@H]2C[C@H](C(=O)NCCCCN(C)C)[C@H](c3ccc(O)cc3)N2C1=O` has measured composite z-score not below 0.08. Thanks!
Result: F

Problem: Hello, I need to know if O=C1C2C=CC(C(O)c3ccc(B(O)O)cc3)N(Nc3ccccc3)C2C(=O)N1c1ccccc1 (centres undefined) has measured composite z-score not below 0.08. Thanks!
Result: T

Problem: Hello, I need to know if `CC(C)Cc1ccc(CN2CC[C@@H](NS(=O)(=O)c3ccccc3)C2)cc1` has measured composite z-score not below 0.08. Thanks!
Result: F

Continuing:
Problem: Hello, I need to know if `CC(C)CNC(=O)[C@@H]1c2ccccc2C(=O)N(Cc2cc(C(F)(F)F)cc(C(F)(F)F)c2)[C@H]1c1ccc(CO)cc1` has measured composite z-score not below 0.08. Thanks!
Result: F

Problem: Hello, I need to know if `COc1ccc([Si](C)(C)[C@@H]2[C@@H](CC(=O)N(CCO)Cc3ccccc3)O[C@]3(C(=O)N(C)c4ccccc43)[C@H]2C)cc1` has measured composite z-score not below 0.08. Thanks!
Result: T

Problem: Hello, I need to know if CCN(CC)c1ccc(N2CC=CC34O[C@@H]5/C=C\CCCOC(=O)C5[C@H]3C(=O)N(C(CO)C(C)C)[C@@H]4C2=O)cc1 (some centres undefined) has measured composite z-score not below 0.08. Thanks!
Result: T

Problem: Hello, I need to know if C=CCC(OC(C)=O)[C@@H]1[C@@H](N(Cc2ccc(-c3ccccc3)cc2)C(=O)Cc2ccc(OC)cc2)c2cc(OCCCO)ccc2N1C(=O)c1ccc2ccccc2n1 (some centres undefined) has measured composite z-score not below 0.08. Thanks!
Result: F

Problem: Hello, I need to know if O=C1OCC=C[C@H]2OC34C=CCN(c5ccc(Cl)cc5)C(=O)[C@H]3N(CCCCCCO)C(=O)[C@@H]4[C@@H]12 (some centres undefined) has measured composite z-score not below 0.08. Thanks!
Result: T

Problem: Hello, I need to know if `[N-]=[N+]=NCc1ccccc1[C@@H]1OC(c2ccc(OCCCO)cc2)=N[C@]1(Cc1ccccc1N=[N+]=[N-])C(=O)NCc1ccccc1` has measured composite z-score not below 0.08. Thanks!
Result: T

Problem: Hello, I need to know if `CCOC(=O)C[C@H]1[C@H](OC(=O)c2ccccc2-c2ccccc2)[C@@H](NC(=O)c2ccc3ccccc3c2)c2cc(OCCCO)ccc2N1C(=O)c1ccc2ccccc2n1` has measured composite z-score not below 0.08. Thanks!
Result: F

Problem: Hello, I need to know if `C=C(CCCC)/C(=C/C[C@H](OC(C)=O)c1ccc(CO)o1)c1cnc2ccccc2c1` has measured composite z-score not below 0.08. Thanks!
Result: T

Problem: Hello, I need to know if `COc1ccccc1CN1C(=O)c2ccccc2[C@@H](C(=O)NCCN2CCOCC2)[C@@H]1c1ccc(CO)cc1` has measured composite z-score not below 0.08. Thanks!
Result: T

From: PubChem BioAssay
